Every entry's value here was drawn from patent US10660877B2.

Target: human TLR8 (Homo sapiens (Human))
Sequence (Q9NR97 27-1041): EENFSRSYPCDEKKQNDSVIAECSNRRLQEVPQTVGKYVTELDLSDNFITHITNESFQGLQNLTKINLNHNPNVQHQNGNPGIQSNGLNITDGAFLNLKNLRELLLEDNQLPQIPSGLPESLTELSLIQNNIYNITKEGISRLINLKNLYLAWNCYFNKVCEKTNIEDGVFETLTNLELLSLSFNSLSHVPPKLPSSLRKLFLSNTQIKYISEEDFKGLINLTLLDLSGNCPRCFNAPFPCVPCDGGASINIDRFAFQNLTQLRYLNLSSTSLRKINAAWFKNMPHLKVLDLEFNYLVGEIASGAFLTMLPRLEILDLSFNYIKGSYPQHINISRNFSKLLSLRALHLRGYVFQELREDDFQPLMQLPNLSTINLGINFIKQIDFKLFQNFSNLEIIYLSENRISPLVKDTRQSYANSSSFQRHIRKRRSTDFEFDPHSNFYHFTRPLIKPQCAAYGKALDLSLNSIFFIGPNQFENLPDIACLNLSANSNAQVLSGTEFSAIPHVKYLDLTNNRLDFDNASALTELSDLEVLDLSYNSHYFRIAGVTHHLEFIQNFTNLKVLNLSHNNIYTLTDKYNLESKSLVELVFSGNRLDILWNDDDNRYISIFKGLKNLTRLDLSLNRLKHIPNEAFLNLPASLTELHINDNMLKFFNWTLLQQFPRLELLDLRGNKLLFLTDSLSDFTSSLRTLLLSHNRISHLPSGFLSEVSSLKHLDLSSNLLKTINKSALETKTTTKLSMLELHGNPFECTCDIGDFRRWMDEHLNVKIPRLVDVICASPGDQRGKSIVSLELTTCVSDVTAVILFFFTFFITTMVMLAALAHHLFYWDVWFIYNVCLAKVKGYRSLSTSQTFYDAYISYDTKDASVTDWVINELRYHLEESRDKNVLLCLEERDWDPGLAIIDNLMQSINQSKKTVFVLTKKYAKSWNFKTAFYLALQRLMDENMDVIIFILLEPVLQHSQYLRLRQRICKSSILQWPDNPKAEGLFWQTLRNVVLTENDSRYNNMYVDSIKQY
Test: TLR8 inhibition reporter assay (HEK-Blue cells, SEAP reporter, R848 stimulation);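 also: compounds tested from 0.05 nM to 50 µM, 22 h at 37 °C, SEAP measured with HEK-Blue Detection, inhibition relative to agonist plus DMSO versus a known inhibitor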
Conditions: read-out: TLR8 IC50, HEK-Blue cells overexpressing human TLR8, R848 15.9 μM
measured_endpoint: IC50 (nM)
# number only, unit nM dropped from output

Value of measured IC50 for the entry CCc1c(-c2ccnc(C)c2)[nH]c2ccc(C3CCN(C(=O)[C@H]4CC(F)(F)CN4)CC3)cc12 [Example 623] : 226

IC50 in this record for Cc1cc(-c2[nH]c3ccc(C4CCN(CC(=O)N5CCC(O)CC5)CC4)cc3c2C(C)C)cc(C)n1 [Example 230] : 17

// IC50 lookup, molecule = CNCC(=O)N1CCC(c2ccc3[nH]c(-c4ccnc(C)c4)c(C(C)C)c3c2)CC1 [Example 510] , result: 8.6

Entry Cc1cc(-c2[nH]c3ccc(C4CCN(CC(=O)N5CCCC(C)(C)C5)CC4)cc3c2C(C)C)cc(C)n1 [Example 249] — recorded IC50 = 36.3
